- System: Escherichia coli TOP10;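 note: peptides expressed intracellularly from a pBAD plasmid library in pooled LB shake-flask culture, induced with 0.3% L-arabinose, DNA abundance read by NGS, three biological replicates, DESeq2 with apeglm shrinkage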
- protocolDescription: shrunken log2 fold change of peptide-encoding DNA abundance (4.5 h post-induction vs induction); higher = less antimicrobial activity (less host growth inhibition)
- assaySetup: time post-induction: 4.5 h; library: site-saturation at positions 5, 18, 19, 20
shrunken log2 fold change values for the sequences below.
experimentalReadout: shrunken log2 fold change

>>> val("RRIRFRPPRLPRPRPRPYHWPRP")
-0.208
>>> val("RRIRDRPPRLPRPRPRPPTSPRP")
0.00594
>>> val("RRIRYRPPRLPRPRPRPVWSPRP")
-0.337
>>> val("RRIRLRPPRLPRPRPRPHCHPRP")
-0.727
>>> val("RRIRCRPPRLPRPRPRPNAFPRP")
0.0246
>>> val("RRIRIRPPRLPRPRPRPHQAPRP")
-0.0342
>>> val("RRIRSRPPRLPRPRPRPAAAPRP")
0.868
>>> val("RRIRIRPPRLPRPRPRPCCIPRP")
-2.25
>>> val("RRIRLRPPRLPRPRPRPFMPPRP")
-0.195
>>> val("RRIRSRPPRLPRPRPRPSHSPRP")
-0.706
>>> val("RRIRARPPRLPRPRPRPYKLPRP")
-0.467
>>> val("RRIRPRPPRLPRPRPRPNPGPRP")
0.0588
>>> val("RRIRVRPPRLPRPRPRPMPLPRP")
-0.348
>>> val("RRIRYRPPRLPRPRPRPQCWPRP")
-0.321
>>> val("RRIRFRPPRLPRPRPRPIHFPRP")
-0.246
>>> val("RRIRSRPPRLPRPRPRPYNCPRP")
-0.171
>>> val("RRIRYRPPRLPRPRPRPPQCPRP")
-0.32
>>> val("RRIRPRPPRLPRPRPRPWYLPRP")
-0.591
>>> val("RRIRFRPPRLPRPRPRPDKCPRP")
-0.18

The measured values listed here are drawn from the supplement of paper PMC9112550.
